# Tested on: Klebsiella pneumoniae
# test.description: Antibacterial activity against Klebsiella pneumoniae ATCC 13883 assessed as diameter of inhibition zone at 1 mg/ml after 24 hrs by agar well diffusion method
# Format: functional
# conditions.used: ATCC 13883, 24 h, read-out: DIZ
property: zone of inhibition at 1000 µg/mL (mm)
One number for each entry, in mm.

Please review the entries below; each comes with its answer.
>  <structure.string>
O=C(O)CNC(=O)c1ccc(NC(=S)Nc2cccc(F)c2)cc1

>  <unit.annotation>
mm

>  <observed.measurement>
23

$$$$
>  <structure.string>
O=C(O)CNC(=O)c1ccc(NC(=S)Nc2ccccc2C(=O)Nc2cccc(C(F)(F)F)c2)cc1

>  <unit.annotation>
mm

>  <observed.measurement>
0

$$$$
>  <structure.string>
N=C(N)NS(=O)(=O)c1ccc(NC(=S)Nc2ccc(C(=O)NCC(=O)O)cc2)cc1

>  <unit.annotation>
mm

>  <observed.measurement>
0

$$$$

I need zone of inhibition at 1000 µg/mL for every entry listed below, if you could help.
1. O=C(O)CNC(=O)c1ccc(NC(=S)Nc2ccc(C(=O)NCC(=O)O)cc2)cc1
2. O=C(O)CNC(=O)c1ccc(NC(=S)Nc2ccc(NC(=S)Nc3ccc(C(=O)NCC(=O)O)cc3)cc2)cc1

1: 23; 2: 16
